Recorded measurements of FACS Geomean, one per entry
Molecular target: T1, Soluble ASGR-1 (human, UniProt P07306 62-291, biotinylated)
T1 construct: Soluble recombinant protein; also called recombinant, soluble ASGR-1 biotinylated protein
T1 sequence: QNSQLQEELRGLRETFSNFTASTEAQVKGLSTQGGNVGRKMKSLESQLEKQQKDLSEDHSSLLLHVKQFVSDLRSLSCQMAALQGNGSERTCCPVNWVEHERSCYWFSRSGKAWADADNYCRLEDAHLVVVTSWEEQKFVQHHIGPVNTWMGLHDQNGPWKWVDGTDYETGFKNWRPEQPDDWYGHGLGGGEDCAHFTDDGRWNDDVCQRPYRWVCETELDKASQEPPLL
Assay: limited antigen binding assay; biotinylated soluble ASGR-1 coated at 2.5 ng/mL on LumAvidin beads, FACS
A number alone suffices; assume FACS Geomean.

194A4 (antibody, V domains shown, Tested as hybridoma supernatant at normalized concentration) VH: QVQLVQSGTEVKKPGASLKVSCKASGYTFTVYYLNWVRQAPGQGLEWMGWINPNSGGTNYAQKFQGRVTMTRDTSISTAYMELSRLRSDDTAVYYCARGYDILTGWGQGTLVTVSS VL: EIVLTQSPGTLSLSPGERATLSCRASRGVSNIYLAWYQQKPGQAPRLLIYGASNRATGIPDRFSGSGSGTDFTLTISRLEPEDFAVYYCQHNDYSMFTFGPGTKVDIK : 38900

Lookup: Reported FACS Geomean for 7F4 (antibody, V domains shown, Tested as hybridoma supernatant at normalized concentration) VH: QLQLQESGPGLVKPSETLSLTCTVSGGSISRSSYYWGWIRQPPGKGLEWIGNIYYSGATYYNPSLKSRVTISVDTSTNQFSLKLSSVTAADTAVYYCARHSGSWSLDYWGQGTLVTVSS VL: DIQMTQSPSSLSASVGDRVTITCRTSQGIRNDLGWYQQKPGKAPKRLIYAASNLQSGVPSRFSGSGSGTEFTLTISSLQPEDFATYYCLQHSAYPLTFGGGTKVEIK : what is it?
Found: 4910
